# TESTED SYSTEM: Feline FcRn complex (FcRn-alpha subunit and beta-microglobulin) (feline)
# PROTOCOL: SPR (Biacore), feline FcRn captured on SA chip, IgG flowed over, pH 6
READOUT TYPE: pKd
Interpret pKd as the negative base-10 log of the concentration measured in mol/L.

IN: // query pKd value for entry feline IgG1a Fc mutant Q311H, S428Y (antibody, part only; not given: Variable domains, not shown: another chain or arm of the molecule) constant: ASTTAPSVFPLAPSCGTTSGATVALACLVLGYFPEPVTVSWNSGALTSGVHTFPAVLQASGLYSLSSMVTVPSSRWLSDTFTCNVAHPPSNTKVDKTVRKTDHPPGPKPCDCPKCPPPEMLGGPSIFIFPPKPKDTLSISRTPEVTCLVVDLGPDDSDVQITWFVDNTQVYTAKTSPREEQFNSTYRVVSVLPILHHDWLKGKEFKCKVNSKSLPSPIERTISKAKGQPHEPQVYVLPPAQEELSRNKVSVTCLIKSFHPPDIAVEWEITGQPEPENNYRTTPPQLDSDGTYFVYSKLSVDRSHWQRGNTYTCSVYHEALHSHHTQKSLTQSPGK
OUT: 8.16

Now consider a different binder.
IN: Using the record for feline IgG1a Fc mutant Q311K, S428L (antibody, part only; not given: variable domains and light chain, not shown: another chain or arm of the molecule; small tags and cut ends) constant: ASTTAPSVFPLAPSCGTTSGATVALACLVLGYFPEPVTVSWNSGALTSGVHTFPAVLQASGLYSLSSMVTVPSSRWLSDTFTCNVAHPPSNTKVDKTVRKTDHPPGPKPCDCPKCPPPEMLGGPSIFIFPPKPKDTLSISRTPEVTCLVVDLGPDDSDVQITWFVDNTQVYTAKTSPREEQFNSTYRVVSVLPILHKDWLKGKEFKCKVNSKSLPSPIERTISKAKGQPHEPQVYVLPPAQEELSRNKVSVTCLIKSFHPPDIAVEWEITGQPEPENNYRTTPPQLDSDGTYFVYSKLSVDRSHWQRGNTYTCSVLHEALHSHHTQKSLTQSPGK , report its pKd.
OUT: 8.25
